method: Pharmacokinetic food-effect study, single 20 mg/kg dose, healthy subjects (Example 17)
experimental.context: human, in vivo, po, 20 mg/kg, AUC0-1, cannabidiol, single 20 mg/kg oral, fed; mean ± SD
readout: AUC(0-t) (ng·h/mL)
Give bare numbers, in ng·h/mL.

AUC(0-t) recorded for this molecule, `C=C(C)[C@@H]1CCC(C)=C[C@H]1c1c(O)cc(CCCCC)cc1O` , is 21.8

----------
method: Pharmacokinetic food-effect study, single 20 mg/kg dose, healthy subjects (Example 17)
experimental.context: human, in vivo, po, 20 mg/kg, AUC0-2.5, cannabidiol, single 20 mg/kg oral, fed; mean ± SD
readout: AUC(0-t)
Dear colleague, please send the value followed by its unit.

# compound C=C(C)[C@@H]1CCC(C)=C[C@H]1c1c(O)cc(CCCCC)cc1O [cannabidiol] ; its AUC(0-t) = 424 ng·h/mL

----------
method: clinical
experimental.context: human, in vivo, po, 20 mg/kg, t1/2, cannabidiol, single 20 mg/kg oral dose of cannabidiol solution, fed; mean
readout: half-life (h)
Numbers only, in h.

Lab note: measured half-life of `C=C(C)[C@@H]1CCC(C)=C[C@H]1c1c(O)cc(CCCCC)cc1O` was 42.3

----------
method: Pharmacokinetic food-effect study, single 20 mg/kg dose, healthy subjects (Example 17)
experimental.context: human, in vivo, po, 20 mg/kg, Cmax, cannabidiol, single 20 mg/kg oral dose of cannabidiol solution, fed; mean
readout: Cmax (ng/mL)
Numbers only, in ng/mL.

Looking up C=C(C)[C@@H]1CCC(C)=C[C@H]1c1c(O)cc(CCCCC)cc1O [cannabidiol] , I see its Cmax listed as 1560

----------
method: Pharmacokinetic food-effect study, single 20 mg/kg dose, healthy subjects (Example 17)
experimental.context: human, in vivo, po, 20 mg/kg, AUC0-6, cannabidiol, single 20 mg/kg oral, fed; mean ± SD
readout: AUC(0-t)
Don't forget the unit after the number, please.

// AUC(0-t) lookup, molecule = `C=C(C)[C@@H]1CCC(C)=C[C@H]1c1c(O)cc(CCCCC)cc1O` , result: 1090 ng·h/mL

----------
method: Pharmacokinetic food-effect study, single 20 mg/kg dose, healthy subjects (Example 17)
experimental.context: human, in vivo, po, 20 mg/kg, AUC0-120, cannabidiol, single 20 mg/kg oral, fasted; mean ± SD
readout: AUC(0-t) (ng·h/mL)
Give bare numbers, in ng·h/mL.

AUC(0-t) in this record for C=C(C)[C@@H]1CCC(C)=C[C@H]1c1c(O)cc(CCCCC)cc1O [cannabidiol] : 0.867

----------
method: Pharmacokinetic food-effect study, single 20 mg/kg dose, healthy subjects (Example 17)
experimental.context: human, in vivo, po, 20 mg/kg, Tmax, cannabidiol, single 20 mg/kg oral dose of cannabidiol solution, fasted; median (min, max)
readout: Tmax
Hey, just the number and the unit after it is fine.

Value of Tmax reported for the compound `C=C(C)[C@@H]1CCC(C)=C[C@H]1c1c(O)cc(CCCCC)cc1O` is 12 h

----------
method: Pharmacokinetic food-effect study, single 20 mg/kg dose, healthy subjects (Example 17)
experimental.context: human, in vivo, po, 20 mg/kg, Cmax, cannabidiol, single 20 mg/kg oral dose of cannabidiol solution, fasted; mean
readout: Cmax (ng/mL)
Numbers only, in ng/mL.

The recorded Cmax for C=C(C)[C@@H]1CCC(C)=C[C@H]1c1c(O)cc(CCCCC)cc1O [cannabidiol] is 27.3
